Consider the following substances and their measured Hydrophobicity readings.
Test: Hydrophobicity of peptides of subfraction SF4
Format: physicochemical
Conditions: single peptides of subfraction SF4
Protocol: Further separation of the third fraction (F3) on preparative High Pressure Liquid Chromatography (HPLC) using TSK G2000 SW column and a 5 mM ammonium acetate buffer mobile phase adjusted to pH 6.5 gives five subfractions (SF1 to SF5). Composition of subfraction four (SF4), obtained by RP-HPLC using C-18™ column, containing fifteen peptides having average molecular weight of 900 daltons (200 to 1400 daltons) and average hydrophobicity of 11.7 Kcal/mole (5 to 20 Kcal/mole) is presented in Table 2.
Numeric only. Scale: kcal/mol

Solved entries (count: 3):
{"substance": "YVPLGTQY (Peptide from enzymatic hydrolysate of milk proteins) [Casein α-s1 166-173, peptide of SF4]", "Hydrophobicity, kcal/mol": 12.7}
{"substance": "LYQEPVL (Peptide from enzymatic hydrolysate of milk proteins) [Casein β 192-198, peptide of SF4]", "Hydrophobicity, kcal/mol": 9.3}
{"substance": "SPAQILQWQVL (Peptide from enzymatic hydrolysate of milk proteins) [Casein κ 69-79, peptide of SF4]", "Hydrophobicity, kcal/mol": 15.5}

Given INNQFLPYPY (Peptide from enzymatic hydrolysate of milk proteins) [Casein κ 51-60, peptide of SF4] , state its recorded Hydrophobicity.
19.9

* * *

Test: Hydrophobicity of peptides of subfraction SF4
Type: physicochemical
Conditions: single peptides of subfraction SF4
Protocol: Further separation of the third fraction (F3) on preparative High Pressure Liquid Chromatography (HPLC) using TSK G2000 SW column and a 5 mM ammonium acetate buffer mobile phase adjusted to pH 6.5 gives five subfractions (SF1 to SF5). Composition of subfraction four (SF4), obtained by RP-HPLC using C-18™ column, containing fifteen peptides having average molecular weight of 900 daltons (200 to 1400 daltons) and average hydrophobicity of 11.7 Kcal/mole (5 to 20 Kcal/mole) is presented in Table 2.
measured attribute: Hydrophobicity
The reply must contain the numeric value and, after it, the unit.

{"substance": "VLPVPQK (Peptide from enzymatic hydrolysate of milk proteins) [Casein β 170-176, peptide of SF4]", "Hydrophobicity": "12.3 kcal/mol"}
{"substance": "LYQGPIVL (Peptide from enzymatic hydrolysate of milk proteins) [Casein α-s2 99-106, peptide of SF4]", "Hydrophobicity": "17.7 kcal/mol"}
{"substance": "QGPIVLNPW (Peptide from enzymatic hydrolysate of milk proteins) [Casein α-s2 101-109, peptide of SF4]", "Hydrophobicity": "15.1 kcal/mol"}
{"substance": "YGLNYYQQKPVA (Peptide from enzymatic hydrolysate of milk proteins) [Casein κ 38-49, peptide of SF4]", "Hydrophobicity": "14.4 kcal/mol"}
{"substance": "VPLGTQY (Peptide from enzymatic hydrolysate of milk proteins) [Casein α-s1 167-173, peptide of SF4]", "Hydrophobicity": "9.9 kcal/mol"}

Consider the substance ALPQYL (Peptide from enzymatic hydrolysate of milk proteins) [Casein α-s2 175-180, peptide of SF4] and give its measured Hydrophobicity.
10.9 kcal/mol
